# credit: patent US20100183625A1

molecular target: T1, pKal (Homo sapiens, UniProt P03952); assay: Fab fragments (small scale) tested for inhibition against human pKal in an in vitro protease cleavage assay; format: biochemical; conditions: Table 9
T1 construct: two disulfide linked polypeptides; a heavy chain of approximately 52 kDa and a catalytic domain of approximately 34 kDa; host or cells: human plasma
T1 sequence (P03952 391-638 limits assumed): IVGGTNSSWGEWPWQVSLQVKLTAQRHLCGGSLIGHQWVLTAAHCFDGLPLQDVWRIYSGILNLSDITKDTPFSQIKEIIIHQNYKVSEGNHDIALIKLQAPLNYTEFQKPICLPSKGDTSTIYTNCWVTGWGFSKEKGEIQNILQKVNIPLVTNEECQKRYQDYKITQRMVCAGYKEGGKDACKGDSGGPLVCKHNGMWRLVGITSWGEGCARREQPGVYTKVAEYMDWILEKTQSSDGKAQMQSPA
T1 sequence (P03952 20-390 partner limits assumed): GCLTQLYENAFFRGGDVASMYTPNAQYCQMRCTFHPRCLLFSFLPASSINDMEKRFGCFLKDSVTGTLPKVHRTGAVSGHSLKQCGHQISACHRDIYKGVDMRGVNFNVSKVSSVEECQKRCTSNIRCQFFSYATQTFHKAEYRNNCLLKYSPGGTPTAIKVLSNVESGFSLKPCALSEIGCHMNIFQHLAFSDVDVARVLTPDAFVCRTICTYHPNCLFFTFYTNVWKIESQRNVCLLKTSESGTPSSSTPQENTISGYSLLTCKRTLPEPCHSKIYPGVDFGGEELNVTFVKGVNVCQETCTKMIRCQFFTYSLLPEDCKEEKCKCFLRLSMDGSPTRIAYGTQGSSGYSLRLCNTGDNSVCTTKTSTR

Molecule: X68-F10: single point mutation of M142-H08 (P3); HV-CDR3 GGLLLQFRELKSNYFDY (antibody, V domains shown) VL: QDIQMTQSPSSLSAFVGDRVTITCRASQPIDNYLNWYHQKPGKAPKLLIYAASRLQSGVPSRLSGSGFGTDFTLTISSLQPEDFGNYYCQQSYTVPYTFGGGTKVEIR VH: EVQLLESGGGLVQPGGSLRLSCAASGFTFSAYSMIWVRQAPGKGLEWVSYIRPSGGRTTYADSVKGRFTISRDNSKNTLYLQMNSLRAEDTAVYYCARGGLLLQFRELKSNYFDYWGQGTLVTVSSASTKGPSVFPLAPSSKS
Inhibit as a Fab?: No
